SYSTEM: Sulfhydryl oxidase 1 (Homo sapiens) (UniProt O00391)
Sequence (O00391 whole entry, looked up): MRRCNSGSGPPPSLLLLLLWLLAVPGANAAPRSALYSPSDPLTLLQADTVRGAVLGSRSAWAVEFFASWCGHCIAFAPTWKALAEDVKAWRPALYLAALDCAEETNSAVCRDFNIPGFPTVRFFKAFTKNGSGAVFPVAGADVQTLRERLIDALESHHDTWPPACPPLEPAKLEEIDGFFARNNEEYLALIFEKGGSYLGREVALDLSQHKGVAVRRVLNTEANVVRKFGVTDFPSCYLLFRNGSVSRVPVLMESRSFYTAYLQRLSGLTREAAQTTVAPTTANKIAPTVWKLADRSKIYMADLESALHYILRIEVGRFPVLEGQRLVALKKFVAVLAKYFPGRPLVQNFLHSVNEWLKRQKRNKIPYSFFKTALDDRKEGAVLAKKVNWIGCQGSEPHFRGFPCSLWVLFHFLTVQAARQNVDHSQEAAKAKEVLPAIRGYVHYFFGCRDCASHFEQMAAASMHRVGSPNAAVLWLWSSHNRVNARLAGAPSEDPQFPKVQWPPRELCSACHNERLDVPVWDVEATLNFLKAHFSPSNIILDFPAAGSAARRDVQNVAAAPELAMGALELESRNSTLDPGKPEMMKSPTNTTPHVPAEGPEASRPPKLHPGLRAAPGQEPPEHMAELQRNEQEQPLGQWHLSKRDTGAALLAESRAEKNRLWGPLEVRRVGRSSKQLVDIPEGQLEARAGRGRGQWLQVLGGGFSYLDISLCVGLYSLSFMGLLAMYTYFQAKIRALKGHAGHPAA
TEST SUMMARY: QSOX1 enzyme inhibitors, primary screen, biochemical, ROS-Glo H2O2 luminescence, HTS (AID 1347418)
CONDITION DESCRIPTION: recombinant QSOX1, ROS-Glo H2O2 luminescence; at 12.5 µM; hits give high values; active = any value above zero
Hit rate of the full screen: of about 1,300 compounds, about 750 (58%) were called active. The list shows a part of the results.

- MOLECULE: "CN(C)[C@@H]1C(=O)C(C(N)=O)=C(O)[C@@]2(O)C(=O)C3=C(O)c4c(O)ccc(Cl)c4[C@@H](O)[C@H]3C[C@@H]12"
  inhibition, %: 9.5
- MOLECULE: "N#C/C(=C\\c1ccc(O)c(O)c1)C(=O)NCCCNC(=O)/C(C#N)=C/c1ccc(O)c(O)c1"
  inhibition, %: 25
- MOLECULE: "COc1ccc(CCn2nnnc2C2(c3ccc(C)cc3)CC2)cc1"
  inhibition, %: 0.5
- MOLECULE: "O=[N+]([O-])c1cccc2c(Br)[nH]nc12"
  inhibition, %: 5.3
- MOLECULE: "N[C@@H](Cc1ccc(O)c(O)c1)C(=O)O"
  inhibition, %: 9.8
- MOLECULE: "COc1ccccc1N1CCN(CCCNc2c(C)c(=O)n(C)c(=O)n2C)CC1"
  inhibition, %: 7.4
- MOLECULE: "CCCCCCC(=O)OC1CC(C)(C)NC(C)(C)C1"
  inhibition, %: 1.1
- MOLECULE: "CC(C)c1ccc2c(c1)c(SC(C)(C)C)c(CC(C)(C)C(=O)O)n2Cc1ccc(Cl)cc1"
  inhibition, %: 8.9
- MOLECULE: "Cc1ccccc1/C=C/C1=NCCN1"
  inhibition, %: 0.5
- MOLECULE: "CC1=C(CC(=O)O)c2cc(F)ccc2/C1=C\\c1ccc(S(C)=O)cc1 (configuration not stated)"
  inhibition, %: -0.4
- MOLECULE: "CN1C[C@H](C(=O)N[C@]2(C)O[C@@]3(O)[C@@H]4CCCN4C(=O)[C@H](Cc4ccccc4)N3C2=O)C[C@@H]2c3cccc4[nH]cc(c34)C[C@H]21"
  inhibition, %: 10
- MOLECULE: "NC(=O)c1ccc2[nH]ccc2c1"
  inhibition, %: 0.6
- MOLECULE: "O=C1NC(=O)/C(=C/c2ccc(-c3ccc(F)cc3O)o2)S1"
  inhibition, %: 27.2
- MOLECULE: "COc1cc2nc(N3CCN(C(=O)C4COc5ccccc5O4)CC3)nc(N)c2cc1OC (configuration not stated)"
  inhibition, %: 4.9
- MOLECULE: "CC(C)NCC(O)COc1ccc(CCOCC2CC2)cc1 (configuration not stated)"
  inhibition, %: -0.5
- MOLECULE: "CC#CCOC(=O)c1c(C)nc2sc3c(c2c1N)CCC(O)C3 (configuration not stated)"
  inhibition, %: 1.6
- MOLECULE: "CC(C)(C)C(=O)Oc1ccc(S(=O)(=O)Nc2ccccc2C(=O)NCC(=O)O)cc1"
  inhibition, %: -1
- MOLECULE: "N[C@@H](Cc1ccc(O)c(I)c1)C(=O)O"
  inhibition, %: -5.7
- MOLECULE: "CN1CCN(CC(=O)N2c3ccccc3C(=O)Nc3cccnc32)CC1"
  inhibition, %: -2.7
- MOLECULE: "COc1ccc(Cl)cc1C(=O)NCCc1ccc(S(=O)(=O)NC(=O)NC2CCCCC2)cc1"
  inhibition, %: -5.6
- MOLECULE: "CSC(=N)N"
  inhibition, %: -7.4
- MOLECULE: "COc1ccc2c(c1)c(CC(=O)O)c(C)n2Cc1ccc(Cl)cc1"
  inhibition, %: -5.1

Recorded values, source PubChem BioAssay AID1347418.
